Reference source: the METLIN SMRT retention time set (Domingo-Almenara et al. 2019)

Test: gradient 5% acetonitrile 3 min, to 50% in 2 min, to 85% in 15 min, held 3 min, 100 µL/min
Details: column: Zorbax Extend-C18 2.1 x 50 mm; eluents: water / acetonitrile, 0.1% formic acid
experimentalEndpoint: RP-LC retention time (s)
Answers are plain numbers, in s.

Known results for compounds:
INSERT INTO results (compound, experimentalendpoint, readoutnumber) VALUES
  ('Cn1nccc1C(=O)Nc1c(-c2ccccc2)nc2sc(N3CCCCC3)nn12', 'RP-LC retention time', 678),
  ('O=C(Cn1cccc1-c1nnc(-c2ccccc2)o1)Nc1ccc(F)c(F)c1', 'RP-LC retention time', 997),
  ('Cc1ccccc1-c1nnc(COc2ccc(NC(=O)c3cncc(Br)c3)cc2)o1', 'RP-LC retention time', 968);

Would you mind giving RP-LC retention time for every compound in the list below?
1. CC(C)NC(=O)c1ccc(Cn2cncn2)cc1
2. Cc1n[nH]c(C)c1CNC(=O)C1CCN(C(=O)c2ncn3c2COC(c2ccc(F)cc2)C3)CC1 (stereo not given)
3. COc1ccc(Cn2nnc(C(=O)NCC3CC3)c2-n2cccc2)cc1
4. COCCNC(=O)C1CCCN(C(=O)c2[nH]c(C)c(C(=O)OC)c2C)C1 (stereo not given)
5. Cc1ncsc1C1N(C2CCN(C(=O)C3CCC3)CC2)C(=O)C12CCCC2 (stereo not given)
6. CC(C)Cc1nc(-c2ccccc2)oc1CC(=O)NCc1ccc(F)c(Cl)c1
7. COc1ccc(CCNC(=O)CCn2c(=O)sc3ccccc32)cc1OC

OUT:
1. 597
2. 627
3. 924
4. 624
5. 661
6. 1080
7. 698

Would you mind giving RP-LC retention time for every compound in the list below?
1. O=C(NC1CCCc2c1[nH]c1ccc(F)cc21)c1ccncc1 (stereo not given)
2. COC(=O)c1ccc(N2C=C(C#N)S(=O)(=O)c3cc(F)ccc32)cc1

OUT:
1: 774; 2: 847

Would you mind giving RP-LC retention time for every compound in the list below?
1. CN(C(=O)Cn1cnc2c(-c3ccccc3)csc2c1=O)c1ccccc1
2. CC(C(=O)NCCN1CCCC1)n1c2ccccc2c2cnn(C)c(=O)c21 (stereo not given)
3. CCCCNC(=O)C(C)n1nc(C)c2c(C)n(-c3ccccc3)nc2c1=O (stereo not given)
4. Nc1nc(-c2ccc(S(=O)(=O)N3CCOCC3)cc2)cs1
5. CCOC(=O)c1ccccc1NC(=O)CCCn1nc(-c2ccc(F)cc2)ccc1=O
6. COc1ccc(Br)cc1CNC(=O)CN1C(=O)CSc2ncccc21

OUT:
911
607
787
620
922
756

Would you mind giving RP-LC retention time for every compound in the list below?
1. CCOCCCNC(=O)C(C)n1c(=O)c(C(F)(F)F)nc2cc(C)c(C)cc21 (stereo not given)
2. COc1ccccc1C(=O)NC1CCN(c2cc(-c3ccccc3)[nH]n2)C1 (stereo not given)

OUT:
1: 1080; 2: 718

====

Experiment: gradient 5% acetonitrile 3 min, to 50% in 2 min, to 85% in 15 min, held 3 min, 100 µL/min
Conditions: column: Zorbax Extend-C18 2.1 x 50 mm; eluents: water / acetonitrile, 0.1% formic acid
experimentalEndpoint: RP-LC retention time (s)
Give bare numbers, in s.

Known results for molecules:
INSERT INTO results (molecule, experimentalendpoint, unitsymbol, readoutnumber) VALUES
  ('CC(=O)Nc1nc(-c2ccc(S(=O)(=O)N3CCN(c4ccccc4)CC3)cc2)cs1', 'RP-LC retention time', 's', 960),
  ('O=C(Cc1cn2cc(Br)ccc2n1)N1CCSCC1', 'RP-LC retention time', 's', 570);

Would you mind giving RP-LC retention time for every molecule in the list below?
1. O=S(=O)(c1ccc2nncn2c1)N(Cc1ccccc1F)c1cc(F)cc(F)c1
2. Cc1ccc(CN2C(=O)NC3(CCN(C(=O)c4ccsc4)CC3)C2=O)cc1

OUT:
1. 874
2. 778

Would you mind giving RP-LC retention time for every molecule in the list below?
1. COc1ccc(-c2nc3cnccn3c2Nc2cccc(C(N)=O)c2)cc1
2. CCN1C(=O)c2cccc3c(NC(=O)c4ccc(C(=O)OC)cc4)ccc1c23
3. COc1ccc(C(=O)N2C[C@H](c3nc(-c4ccccc4)no3)[C@@H](C)C2)cc1
4. CC(C)c1noc(C2CCCCN2Cc2nc(-c3ccccn3)no2)n1 (stereo not given)
5. CCn1c(=O)c(C(=O)NCc2ccccc2Br)nc2cccnc21
6. CCOC(=O)/C=C/c1ccc(O)c(OC)c1
7. Cc1csc(-c2ccc(N3CCN(C(=O)c4cc5ccccc5[nH]4)CC3)nc2)n1

OUT:
1. 612
2. 638
3. 984
4. 824
5. 871
6. 749
7. 852

Would you mind giving RP-LC retention time for every molecule in the list below?
1. COCCCNC(=O)C1CCCN(c2nnc3ccccn23)C1 (stereo not given)
2. O=C(NC1CCCC1)NC1CCN(c2nc3cccnc3n(Cc3ccccc3)c2=O)CC1
3. Cc1ccc(NC(=O)c2cnn3c2CCCC3)c(C)c1
4. CC1CCC(NC(=O)C2CCN(c3nc4ccccc4[nH]3)CC2)CC1 (stereo not given)

OUT:
[529, 990, 762, 649]

Would you mind giving RP-LC retention time for every molecule in the list below?
1. CCOC(=O)COc1cc(-c2ccccc2)nc2ccc(NC(=O)c3ccco3)cc12
2. O=C(NCCN1CCN(C(=O)c2cc(=O)c3ccccc3o2)CC1)c1ccsc1
3. CCn1cnc(S(=O)(=O)N2CCC(C(=O)Nc3nc4ccc(C)cc4s3)CC2)c1
4. CCc1ccc(C2=C(C)C(N3CCC(C(=O)NC(C)C)CC3)=NS2(=O)=O)cc1

OUT:
[743, 557, 812, 812]

The molecule identified as CC(CC(=O)N1CCN(c2ccccc2)CC1)S(=O)(=O)c1ccc2c(c1)CCN2C(=O)C1CC1 (stereo not given) registered its RP-LC retention time at 866
